System: ACHN renal
experiment-description: NCI tumour cell line growth inhibition, 48 h
measured-parameter: TGI (µM)
One number for each entry, in µM.

> print(dat)
                                   compound  measured.parameter  reported.result
1  CCCCC(CC)COC(=O)C[N+](C)(C)CCOC(c1ccccc1)c1ccccc1 (stereo unspecified)                 TGI             30.5
2                            CSc1nnc(SC)nn1                 TGI             30.5
3  CC(=O)C1Cn2c(nc3ccccc32)C[Se]1 (stereo unspecified)                 TGI             11.4

For the 2 compounds below, give their TGI values.
1. COc1ccc(-c2cc(-c3cc(C)cc(Br)c3O)no2)cc1
2. Cc1cc(C(=O)Nc2ccc3cc(CN4CCOCC4)ccc3n2)c(C)n1-c1ccccc1

stdout:
1: 24; 2: 42.3

----------
Test system: MOLT-4 leukemia
experiment-description: NCI tumour cell line growth inhibition, 48 h
measured-parameter: TGI

molecule	measured-on	measured-parameter	reported-result
Cc1cc(C)c(NC(=O)c2sc3nc4c(cc3c2N)C(=O)CCC4)c(C)c1	MOLT-4 leukemia	TGI	> 100 µM
CCOP(=O)(OCC)C(c1ccc(F)cc1)N(C(=O)NC(F)(F)F)c1cccc(C(F)(F)F)c1 (stereo not given)	MOLT-4 leukemia	TGI	> 100 µM
Cc1ccc2c3c1O[C@H]1c4[nH]c5ccccc5c4C[C@@]4(O)[C@@H](C2)N(CC2CC2)CC[C@]314	MOLT-4 leukemia	TGI	32.9 µM
CCOC(=O)/C(C)=C(/O)C(=O)OCC	MOLT-4 leukemia	TGI	> 100 µM
CC(=O)C1Cn2c(nc3ccccc32)C[Se]1 (stereo not given)	MOLT-4 leukemia	TGI	6.79 µM

For the 5 molecules below, give their TGI values.
1. Nc1ccc(Cc2c(N)[nH]c(=O)[nH]c2=O)cc1
2. O=C(/C=C/c1ccc2ccccc2c1)NCc1ccc(C(=O)NCCc2ccccc2)cc1
3. CC(C)=CCC(O)[C@](C)(O)[C@H]1[C@H](O)C[C@@]2(C)[C@@H]3CCc4cc(O)c(OC5OC(CO)C(O)C(O)C5O)cc4C3(C)C(=O)C[C@]12C (stereo not given in full)
4. COc1cc2oc(-c3ccc(O)cc3)c(OC)c(=O)c2c(O)c1OC
5. CC(=O)Nc1ccc(/C=C/c2ccc(NC(=O)Nc3ccc(/C=C/c4ccc(NC(C)=O)cc4S(=O)(=O)O)c(S(=O)(=O)O)c3)cc2S(=O)(=O)O)c(S(=O)(=O)O)c1

stdout:
1: > 100 µM; 2: > 100 µM; 3: > 100 µM; 4: > 100 µM; 5: > 100 µM

----------
Tested on: SF-539 CNS
experiment-description: NCI tumour cell line growth inhibition, 48 h
Kindly state GI50 for each of the entries shown.

> print(dat)
                           smiles.structure  measured.on  measured.parameter  reported.result
1  C=C(C)[C@@H]1CC[C@]2(CO)CC[C@]3(C)[C@H](CC[C@@H]4[C@@]5(C)C=C(C#N)C(=O)C(C)(C)[C@@H]5CC[C@]43C)[C@@H]12   SF-539 CNS                GI50          2610 nM
2  O=S(=O)(c1ccc(NC(=S)NC23CC4CC(CC(C4)C2)C3)cc1)N1CCCCC1   SF-539 CNS                GI50          4190 nM

For the 2 compounds below, give their GI50 values.
1. COc1ccc(C(=O)c2cc(OC)c(OC)c(OC)c2)cc1/C=C/C(=O)c1ccc(F)cc1
2. COc1ccc(-c2[nH]c3ccc(OC)cc3c2/C=C(\C#N)S(=O)(=O)c2ccccc2)cc1

stdout:
["1980 nM", "495 nM"]

----------
System: OVCAR-4 ovarian
experiment-description: NCI tumour cell line growth inhibition, 48 h
Kindly state GI50 for each of the entries shown.

> print(dat)
                                   compound  reported.result
1  O=C1c2cccnc2-c2nc(-c3ccc(Cl)cc3)cc3c2c1nc1ccccc13          43.6 µM

For the 8 compounds below, give their GI50 values.
1. COc1cc2oc(-c3ccc(O)cc3)c(OC)c(=O)c2c(O)c1OC
2. O=C1/C(=C(/c2ccccc2)N2CCOCC2)Cc2ccccc21
3. COc1cc2c3c(n(CCCN)c(=O)c2cc1OC)-c1ccc(C#N)cc1C3=O
4. COc1cc(OC)c(C(=O)/C=C/c2cccc(C(F)(F)F)c2)c(OC)c1
5. COC(=O)Nc1nc2ccc(C3(c4ccc(F)cc4)OCCO3)cc2[nH]1
6. CCCCC(CC)COC(=O)C[N+](C)(C)CCOC(c1ccccc1)c1ccccc1 (configuration not stated)
7. CCCC(CCC)NCC(O)c1cc(-c2ccc(C(F)(F)F)cc2)nc(C(F)(F)F)c1 (configuration not stated)
8. COc1ccc(/C=C/c2c(C(=O)/C=C/c3ccccc3)c(C)nc3ccccc23)cc1

stdout:
1. 99.2 µM
2. 1.52 µM
3. 20 µM
4. 2.24 µM
5. 7.16 µM
6. 2.4 µM
7. 1.83 µM
8. 2.27 µM

For the 3 compounds below, give their GI50 values.
1. CC(C)c1ccc(-c2cc(-c3cn[nH]c3-c3ccccn3)ccn2)cc1
2. CC/C=C\C[C@H](O)C/C=C1/C(=O)C=C[C@@H]1C/C=C\CCCC(=O)OC
3. NS(=O)(=O)c1ccc(-c2ccc3c(NC(=O)C4CC4)n[nH]c3c2)cc1

stdout:
1. 10.4 µM
2. 3.48 µM
3. > 25 µM

----------
Test system: SK-MEL-2 melanoma
experiment-description: NCI tumour cell line growth inhibition, 48 h
measured-parameter: TGI

> print(dat)
                                   compound        measured.on  measured.parameter  reported.result
1  COc1cc(-c2nc3ccccn3c2/N=C/c2cc(Br)cc(Br)c2O)ccc1O  SK-MEL-2 melanoma                 TGI          42.2 µM

For the 3 compounds below, give their TGI values.
1. Cc1cc2nc(C=C(C(F)(F)F)C(F)(F)F)oc2cc1C
2. CC1CCCCNC1=S (stereo not given)
3. O=c1cc(N2CCCC2)[nH]c(=O)n1-c1cccc(Cl)c1

stdout:
1. > 10 µM
2. > 10 µM
3. > 100 µM

For the 5 compounds below, give their TGI values.
1. O=C(Nc1nnc(-c2ccc(Cl)cc2)o1)C(SC(=S)N1CCOCC1)c1ccccc1 (stereo not given)
2. O=C(c1cccs1)N1CCc2ccccc2C1
3. C=CCCC1(CC(Sc2ccccc2)P(=O)(c2ccccc2)c2ccccc2)OCCO1 (stereo not given)
4. CCOC(=O)c1cn2c(n1)sc1cc(Cl)ccc12
5. O=C(O)CNS(=O)(=O)c1ccc(NC(=O)c2ccc([N+](=O)[O-])cc2)cc1

stdout:
1. 44.7 µM
2. > 100 µM
3. > 10 µM
4. > 100 µM
5. > 100 µM

For the 7 compounds below, give their TGI values.
1. CCCC1=C(CC)C(C(=O)Nc2c(C)cccc2C)=NC(S)N1 (stereo not given)
2. NC(=O)c1cc(Cl)ccc1NC(=O)/C=C/c1ccccc1
3. COc1cc(/C=C/c2ccc(OC)c(O)c2)cc(OC)c1
4. CCOC(=O)c1c(N2CCOCC2)[nH]c(=O)c(C(c2c(Cl)cccc2Cl)c2c(O)c(C(=O)OCC)c(N3CCOCC3)[nH]c2=O)c1O
5. COC(=O)[C@@]12C(=O)C=CC(=O)C1C1C(=CC2C)OC2OC3(CCCCC3)OC21 (stereo not given in full)
6. COc1ccc(C(=O)c2cc(C)c(OC)c(C)c2)c(OC)c1O
7. CC1CC2=C(S(=O)(=O)c3ccccc3)CC(S(=O)(=O)c3ccccc3)(S(=O)(=O)c3ccccc3)CC21 (stereo not given)

stdout:
["> 100 µM", "> 39.3 µM", "29.8 µM", "16.2 µM", "35.5 µM", "> 100 µM", "> 100 µM"]

For the 2 compounds below, give their TGI values.
1. CCOC(=O)CCC(=O)C1c2cccc(O)c2C(=O)c2c(O)cc(C)cc21 (stereo not given)
2. CCOC(=O)C1SC(=Nc2ccc(C)c(C)c2)N=C1C (stereo not given)

stdout:
["1.08 µM", "> 100 µM"]

For the 2 compounds below, give their TGI values.
1. CC12OC(C(=O)C13CC3)C1C(=O)c3ccc4c(ccc5ccccc54)c3C(=O)C12 (stereo not given)
2. O=C1c2ccccc2C(=O)C1(O)c1c[nH]c2ccccc12

stdout:
1. > 100 µM
2. > 100 µM

Values were extracted from PubChem BioAssay (NCI).
